The measured values listed here are drawn from patent EP1063290A1.

target: mouse DCR1 (Mus musculus, UniProt Q91X52); construct: made in house; host or cells: E. coli K12; assay: Inhibition of the enzyme reaction; assay type: biochemical; conditions: read-out: Inhibition (%) CDR1
Sequence (Q91X52 whole entry): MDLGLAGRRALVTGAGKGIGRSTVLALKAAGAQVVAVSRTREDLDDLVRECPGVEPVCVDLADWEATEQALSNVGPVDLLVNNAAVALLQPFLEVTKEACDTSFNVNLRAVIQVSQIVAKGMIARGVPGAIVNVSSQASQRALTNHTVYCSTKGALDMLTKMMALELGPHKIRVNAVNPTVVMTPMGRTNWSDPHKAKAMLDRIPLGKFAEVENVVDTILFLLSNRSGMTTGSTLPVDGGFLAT

structure smiles string | inhibition at 100 µM (%)
O=C1NC(=O)C(c2ccccc2)(c2ccccc2)N1 | 17
Nc1ccccc1C(=O)O | 0
O=C(O)CC1(CC(=O)O)CCCC1 | 0
O=C(O)c1ccccc1 | 32

* * *

Below, each entry is listed alongside its reported RA (%) relative activity.
target: protein DCR1 (Mus musculus, UniProt Q91X52); assay: Dicarbonyl reductase activity assay: substrate specificity and rate constants (NAD(P)H oxidation at 340 nm); conditions: substrate concentration 5,000 μM; against a reference of 100 for diacetyl
Sequence (Q91X52 whole entry): as the sequence (Q91X52 whole entry) above
observable: RA (%) relative activity

compound | observable | measured value
CC(=O)C=O [Methylglyoxal] | RA (%) relative activity | 7.9
O=CC(O)CO (racemic) [DL-Glyceraldehyde] | RA (%) relative activity | 40
O=CC=O [Glyoxal] | RA (%) relative activity | 0
CC(=O)C(C)O (stereo not drawn) [Acetoin] | RA (%) relative activity | 7.4
O=Cc1ccncc1 [Pyridine-4-aldehyde] | RA (%) relative activity | 13.7
CC(=O)C(=O)O [Pyruvic acid] | RA (%) relative activity | 0
CCC=O [1-Propanal] | RA (%) relative activity | 0.5
O=CCO [Glycolaldehyde] | RA (%) relative activity | 0.9
CC=O [Acetaldehyde] | RA (%) relative activity | 1.8

* * *

Below, each entry is listed alongside its reported RA (%) relative activity.
target: protein DCR1 (Mus musculus); assay: Dicarbonyl reductase activity assay: substrate specificity and rate constants (NAD(P)H oxidation at 340 nm); conditions: substrate concentration 20 μM; against a reference of 100 for diacetyl
observable: RA (%) relative activity

compound | measured value
O=C1C=Cc2ccccc2C1=O | 47
CC(=O)[C@@]1(O)CC[C@H]2[C@@H]3CCC4=CC(=O)CC[C@]4(C)[C@H]3CC[C@@]21C [17α-hydroxyprogesterone] | 0.0
C[C@]12C[C@H](O)[C@H]3[C@@H](CCC4=CC(=O)CC[C@@]43C)[C@@H]1CC[C@@H]2C(=O)C=O | 0.0
C[C@]12CCC(=O)C=C1CC[C@@H]1[C@@H]2[C@@H](O)C[C@@]2(C)[C@H]1CC[C@]2(O)C(=O)C=O | 0.0
CC(=O)[C@H]1CC[C@H]2[C@@H]3CC[C@@H]4CC(=O)CC[C@]4(C)[C@H]3CC[C@]12C | 0.0

* * *

target: protein hDCR1 (Homo sapiens, UniProt Q7Z4W1); assay: Dicarbonyl reductase activity assay: substrate specificity (NAD(P)H oxidation at 340 nm); conditions: substrate concentration 1,000 μM; against a reference of 100 for diacetyl
Sequence (Q7Z4W1 whole entry): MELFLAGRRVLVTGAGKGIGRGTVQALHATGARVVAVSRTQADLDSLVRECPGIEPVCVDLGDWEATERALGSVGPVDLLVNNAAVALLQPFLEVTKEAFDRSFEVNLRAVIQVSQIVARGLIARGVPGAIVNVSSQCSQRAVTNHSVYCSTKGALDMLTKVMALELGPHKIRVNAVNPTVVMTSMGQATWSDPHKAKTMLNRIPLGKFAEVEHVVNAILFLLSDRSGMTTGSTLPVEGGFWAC
Use RA (%) relative activity to assign classes; range list: low (below 30%), medium (30% to below 70%), high (70% or more)

structure smiles string | cat
O=Cc1ccncc1 | low
O=C(CBr)C(=O)CBr | high
COC(=O)C(C)=O | medium
CC(=O)CC(C)=O | low
O=Cc1ccccc1[N+](=O)[O-] | high
O=Cc1cccnc1 | low
CCCC(=O)C(C)=O | high
O=CC(=O)c1ccccc1 | medium
O=C1CCCCC1=O | low
CC(=O)C(=O)c1ccccc1 | medium

* * *

biological target: protein DCR1 (Mus musculus); experiment: Dicarbonyl reductase activity assay: substrate specificity and rate constants (NAD(P)H oxidation at 340 nm); settings: substrate concentration 1,000 μM; against a reference of 100 for diacetyl
Below, each entry is listed alongside its reported RA (%) relative activity.
observable: RA (%) relative activity

compound | measured target | measured value
O=Cc1cccnc1 | protein DCR1 (Mus musculus) | 4
O=C(c1ccccc1)c1ccncc1 | protein DCR1 (Mus musculus) | 7
CCC(=O)c1ccccc1 | protein DCR1 (Mus musculus) | 0
O=C1CCC(=O)CC1 | protein DCR1 (Mus musculus) | 0
O=C(O)C(=O)Cc1ccccc1 | protein DCR1 (Mus musculus) | 0.5
CCCCC[C@H](O)/C=C/[C@H]1[C@H](O)CC(=O)[C@@H]1C/C=C\CCCC(=O)O | protein DCR1 (Mus musculus) | 0.0
CC(=O)CC(C)=O | protein DCR1 (Mus musculus) | 0
CC(=O)C=O | protein DCR1 (Mus musculus) | 2.3
COC(=O)C(C)=O | protein DCR1 (Mus musculus) | 23.3
C=CCN1CC[C@]23c4c5ccc(O)c4O[C@H]2C(=O)CC[C@@]3(O)[C@H]1C5 | protein DCR1 (Mus musculus) | 0
CC(=O)CO | protein DCR1 (Mus musculus) | 0.8
O=C1CCCCC1=O | protein DCR1 (Mus musculus) | 10.9
CCCC(=O)C(C)=O | protein DCR1 (Mus musculus) | 108
CC(=O)c1ccc(S(=O)(=O)NC(=O)NC2CCCCC2)cc1 [Acetohexamide] | protein DCR1 (Mus musculus) | 0
O=CC(=O)c1ccccc1 | protein DCR1 (Mus musculus) | 3.9
COC(=O)CC(C)=O [Methyl acetoacetate] | protein DCR1 (Mus musculus) | 0.2
